Property name: melting point

These solved cases illustrate the format of a correct answer.
Brc1ccc2nc(COc3ccccc3-c3nc4ccccc4s3)c(COc3ccccc3-c3nc4ccccc4s3)nc2c1 ... 145 °C
Clc1cc2nc(COc3ccccc3-c3nc4ccccc4s3)c(COc3ccccc3-c3nc4ccccc4s3)nc2cc1Cl ... 145 to 150 °C
COc1ccc2nc(COc3ccccc3-c3nc4ccccc4s3)c(COc3ccccc3-c3nc4ccccc4s3)nc2c1 ... 155 to 160 °C
Fc1ccc2nc(COc3ccccc3-c3nc4ccccc4s3)c(COc3ccccc3-c3nc4ccccc4s3)nc2c1 ... 135 to 139 °C
c1ccc(-c2nc3ccccc3s2)c(OCc2nc3ccccc3nc2COc2ccccc2-c2nc3ccccc3s2)c1 ... 130 to 135 °C

Read the next record carefully.
I have this molecule here, `Clc1ccc2nc(COc3ccccc3-c3nc4ccccc4s3)c(COc3ccccc3-c3nc4ccccc4s3)nc2c1` , and I need its recorded melting point.
150 °C
